Source: ChEMBL document CHEMBL4414548

test: Half life in rat liver microsomes; assay type: ADME, Microsome
Measured Metric: half-life (h)
Reply numerically in h, unit not repeated.

INSERT INTO assay_data (smiles_record, unit_name, endpoint_value) VALUES
  ('CNC(=O)c1cnc(NC(=O)C2CC2)cc1Nc1ccccc1S(C)(=O)=O', 'h', 1.92);

GET /values?readout=half-life&item= CNC(=O)c1cnc(Nc2ccccn2)cc1Nc1ccccc1S(C)(=O)=O
0.417

GET /values?readout=half-life&item= [2H]C([2H])([2H])NC(=O)c1nnc(NC(=O)C2CC2)cc1Nc1ccccc1S(C)(=O)=O
1.35

GET /values?readout=half-life&item= [2H]C([2H])([2H])NC(=O)c1cnc(Nc2ccc(F)cn2)cc1Nc1ccccc1S(C)(=O)=O
0.733

GET /values?readout=half-life&item= [2H]C([2H])([2H])NC(=O)c1nnc(Nc2ccc(F)cn2)cc1Nc1ccccc1S(C)(=O)=O
1.33

GET /values?readout=half-life&item= [2H]C([2H])([2H])NC(=O)c1nnc(Nc2ccccn2)cc1Nc1ccccc1S(C)(=O)=O
0.817
